- experimentalSystem: HLA-B*15:09
- measurementProtocol: IEDB peptide-MHC binding, purified MHC/direct/fluorescence; filed as Kd, often an IC50 or EC50 that approximates it; bounds were set here for any values at or beyond the usual limits of such assays
- experimentalConditions: source organism: Vibrio parahaemolyticus RIMD 2210633
endpointLabel: Kd

Recorded Kd (sequence `DMRKRIEAF` ): ≥ 20 µM

---

- experimentalSystem: HLA-B*35:01
- measurementProtocol: IEDB peptide-MHC binding, purified MHC/competitive/fluorescence; filed as Kd, often an IC50 or EC50 that approximates it; bounds were set here for any values at or beyond the usual limits of such assays
- experimentalConditions: source organism: Francisella tularensis subsp. tularensis FSC198
endpointLabel: pKd
Remember, pKd is on a log scale: it is -log10 of the molar concentration.

// assay HLA-B*35:01, entry `FQVNRFTGY` , pKd value = 5.36

---

- experimentalSystem: HLA-A*31:01
- measurementProtocol: IEDB peptide-MHC binding, purified MHC/direct/fluorescence; filed as Kd, often an IC50 or EC50 that approximates it; bounds were set here for any values at or beyond the usual limits of such assays
- experimentalConditions: source organism: Influenza A virus (A/tiger/Thailand/CU-T6/04(H5N1))
endpointLabel: Kd

Kd measured on `TYQWIIRNW` = ≥ 20 µM

---

- experimentalSystem: HLA-A*68:02
- measurementProtocol: IEDB peptide-MHC binding, purified MHC/direct/fluorescence; filed as Kd, often an IC50 or EC50 that approximates it; bounds were set here for any values at or beyond the usual limits of such assays
- experimentalConditions: source organism: Vibrio parahaemolyticus
pKd: −log10 of the molar value.
endpointLabel: pKd

Form: sequence = `DMRKRIEAF` ; pKd = ≤ 4.70

---

The reader will find reported pKd values listed item by item below.
- experimentalSystem: HLA-A*69:01
- measurementProtocol: IEDB peptide-MHC binding, purified MHC/direct/fluorescence; filed as Kd, often an IC50 or EC50 that approximates it; bounds were set here for any values at or beyond the usual limits of such assays
- experimentalConditions: source organism: Mycobacterium tuberculosis
pKd: −log10 of the molar value.

Example cases with answers are listed next.
# recordSequence, pKd
rows = [
    ("ALRSRWRAL", "≤ 4.70"),
    ("RPRRASSPF", "≤ 4.70"),
    ("EKAAWGVAL", "≤ 4.70"),
]

Entry `APRGFRAAF` , HLA-A*69:01 data, pKd value: ≤ 4.70

`APRARTAAF` tested on HLA-A*69:01 gave pKd: ≤ 4.70

// sequence `GPASLPTAL` , assay HLA-A*69:01, pKd value: 5.91

Bench note, HLA-A*69:01: entry `TIHLATAPK` , its pKd = 5.63

---

- experimentalSystem: HLA-B*51:01
- measurementProtocol: IEDB peptide-MHC binding, purified MHC/competitive/fluorescence; filed as Kd, often an IC50 or EC50 that approximates it; bounds were set here for any values at or beyond the usual limits of such assays
- experimentalConditions: source organism: Zaire ebolavirus
pKd: −log10 of the molar value.
endpointLabel: pKd

# recordSequence, experimentalValue
measured = [
    ("TGIVSSMHY", "≤ 4.70"),
]

Please examine the following record next.
pKd of `ATEDPSSGY` , assay on HLA-B*51:01, is ≤ 4.70

---

- experimentalSystem: HLA-A*02:01
- measurementProtocol: IEDB peptide-MHC binding, purified MHC/direct/fluorescence; filed as Kd, often an IC50 or EC50 that approximates it; bounds were set here for any values at or beyond the usual limits of such assays
- experimentalConditions: source organism: Salmonella enterica subsp. enterica serovar Typhimurium
endpointLabel: Kd

Example results:
# recordSequence, Kd
rows = [
    ("GVNACQVGV", "239 nM"),
    ("LMMSSPPPI", "12.3 nM"),
]

Entry `WPVMQWLTA` — recorded Kd = ≥ 20000 nM

---

- experimentalSystem: HLA-A*30:02
- measurementProtocol: IEDB peptide-MHC binding, purified MHC/competitive/radioactivity; filed as Kd, often an IC50 or EC50 that approximates it; bounds were set here for any values at or beyond the usual limits of such assays
- experimentalConditions: source organism: Dengue virus 1 Brazil/97-11/1997
endpointLabel: Kd (nM)
A number alone suffices; assume nM.

Kd recorded for this sequence, `IVQYENLKY` , is 191

---

- experimentalSystem: HLA-A*30:01
- measurementProtocol: IEDB peptide-MHC binding, purified MHC/direct/fluorescence; filed as Kd, often an IC50 or EC50 that approximates it; bounds were set here for any values at or beyond the usual limits of such assays
- experimentalConditions: source organism: Corynebacterium glutamicum
pKd: −log10 of the molar value.
endpointLabel: pKd

sequence `IVAWTRTAT` , pKd observed: ≤ 5.00

---

Examples of sequences with documented Kd follow.
- experimentalSystem: HLA-B*07:02
- measurementProtocol: IEDB peptide-MHC binding, purified MHC/competitive/radioactivity; filed as Kd, often an IC50 or EC50 that approximates it; bounds were set here for any values at or beyond the usual limits of such assays
- experimentalConditions: source organism: Vaccinia virus WR

# count of solved cases: 5
# recordSequence, experimentalValue
records = [
    ("RPEMQEFEY", "≥ 68.8 µM"),
    ("EPLSPDTCLL", "≥ 59.7 µM"),
    ("LPYVGDTSMM", "0.828 µM"),
    ("IPGDILSII", "0.0435 µM"),
    ("DPEKFNARMA", "≥ 53.7 µM"),
]

# Kd (sequence: `DPQNAAVNV` ) is ≥ 77.5 µM

Recorded Kd (sequence `EPVVKDKIKL` ): ≥ 31.5 µM

---

- experimentalSystem: HLA-A*03:01
- measurementProtocol: IEDB peptide-MHC binding, purified MHC/competitive/radioactivity; filed as Kd, often an IC50 or EC50 that approximates it; bounds were set here for any values at or beyond the usual limits of such assays
- experimentalConditions: source organism: Dengue virus 1 Brazil/97-11/1997
Parameter: Kd. Scope: all listed entries.
Provide only the numeric value, understood in nM.

// solved cases for Kd follow
# recordSequence, experimentalSystem, unitsSymbol, experimentalValue
rows = [
    ("VTLFFLSGK", "HLA-A*03:01", "nM", 3.82),
    ("YMTSMKRFK", "HLA-A*03:01", "nM", 897),
    ("AIGTSITQK", "HLA-A*03:01", "nM", 9.33),
    ("AIKVLRGFK", "HLA-A*03:01", "nM", 119),
    ("GVTLFFLSGK", "HLA-A*03:01", "nM", 13.1),
]

Please look at the following sequence next.
The sequence `ATRLENIMWK` showed Kd equal to 42.3

---

- experimentalSystem: HLA-A*30:01
- measurementProtocol: IEDB peptide-MHC binding, purified MHC/competitive/fluorescence; filed as Kd, often an IC50 or EC50 that approximates it; bounds were set here for any values at or beyond the usual limits of such assays
- experimentalConditions: source organism: Francisella tularensis subsp. tularensis FSC198
pKd: −log10 of the molar value.
endpointLabel: pKd

Kindly note the recorded pKd for `FQVNRFTGY` , which is ≤ 4.70

---

- experimentalSystem: HLA-B*08:01
- measurementProtocol: IEDB peptide-MHC binding, purified MHC/direct/fluorescence; filed as Kd, often an IC50 or EC50 that approximates it; bounds were set here for any values at or beyond the usual limits of such assays
- experimentalConditions: source organism: Stutzerimonas stutzeri
endpointLabel: Kd

# Kd of `GRGQILLGK` = ≥ 20 µM

---

- experimentalSystem: HLA-A*02:01
- measurementProtocol: IEDB peptide-MHC binding, purified MHC/competitive/fluorescence; filed as Kd, often an IC50 or EC50 that approximates it; bounds were set here for any values at or beyond the usual limits of such assays
- experimentalConditions: source organism: Mycobacterium tuberculosis CDC1551
pKd: −log10 of the molar value.
endpointLabel: pKd

// pKd value for `ALRSRWRAL` : ≤ 4.70

---

- experimentalSystem: HLA-A*31:01
- measurementProtocol: IEDB peptide-MHC binding, purified MHC/direct/fluorescence; filed as Kd, often an IC50 or EC50 that approximates it; bounds were set here for any values at or beyond the usual limits of such assays
- experimentalConditions: source organism: Pseudomonas putida
endpointLabel: Kd (nM)
API: value field is a number in nM; no unit string.

Entry `VMTEGRHAV` — recorded Kd = 991

---

- experimentalSystem: HLA-A*03:01
- measurementProtocol: IEDB peptide-MHC binding, purified MHC/direct/fluorescence; filed as Kd, often an IC50 or EC50 that approximates it; bounds were set here for any values at or beyond the usual limits of such assays
- experimentalConditions: source organism: Mammarenavirus lassaense
endpointLabel: Kd

Per the record, `ILNHKFCNL` has Kd of ≥ 20 µM

---

- experimentalSystem: HLA-B*08:02
- measurementProtocol: IEDB peptide-MHC binding, purified MHC/direct/fluorescence; filed as Kd, often an IC50 or EC50 that approximates it; bounds were set here for any values at or beyond the usual limits of such assays
- experimentalConditions: source organism: Dengue virus 2 Thailand/16681/84
endpointLabel: Kd

Measured on HLA-B*08:02, `RKKLKPRWL` has a documented Kd of ≥ 20 µM

The values you see were collected from the Immune Epitope Database (IEDB).
